biological target: BTK (Homo sapiens, UniProt Q06187); assay: BTK degradation, DC50 and Dmax of Table 1 (cell line not given); type: cell-based; set-up: endogenous in cells; details: concentration giving 50% reduction of BTK expression level
Sequence (Q06187 whole entry): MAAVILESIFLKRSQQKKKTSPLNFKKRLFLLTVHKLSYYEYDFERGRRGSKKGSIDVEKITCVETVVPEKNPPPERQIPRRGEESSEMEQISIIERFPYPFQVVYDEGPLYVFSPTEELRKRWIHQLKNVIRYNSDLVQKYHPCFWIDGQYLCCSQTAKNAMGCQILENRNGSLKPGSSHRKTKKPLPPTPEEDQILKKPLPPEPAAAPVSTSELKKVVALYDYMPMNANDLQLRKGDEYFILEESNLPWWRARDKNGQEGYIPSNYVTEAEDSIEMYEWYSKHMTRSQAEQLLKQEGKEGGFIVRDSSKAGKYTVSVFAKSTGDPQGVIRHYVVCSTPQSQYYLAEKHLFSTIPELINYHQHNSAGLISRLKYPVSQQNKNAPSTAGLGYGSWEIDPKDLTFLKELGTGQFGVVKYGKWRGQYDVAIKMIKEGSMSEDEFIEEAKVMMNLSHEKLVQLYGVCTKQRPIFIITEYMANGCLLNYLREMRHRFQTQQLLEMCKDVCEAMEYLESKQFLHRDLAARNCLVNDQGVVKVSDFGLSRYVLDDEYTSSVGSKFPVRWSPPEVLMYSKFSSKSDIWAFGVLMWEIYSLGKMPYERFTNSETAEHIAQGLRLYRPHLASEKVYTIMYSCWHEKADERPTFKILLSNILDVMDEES
Readout Label: DC50

>>> meas_value("Nc1ncnc2c1c(-c1ccc(Oc3ccccc3)cc1)nn2C1CCN(CC2CCN(C(=O)N3CCC(CN4CCN(c5ccc6c(c5)C(=O)N(C5CCC(=O)NC5=O)C6=O)CC4)CC3)CC2)CC1 (stereo not drawn)")
"10 to 50 nM"
>>> meas_value("Nc1ncnc2c1c(-c1ccc(Oc3ccccc3)cc1)nn2C1CCN(C(=O)N2CCC(CCCN3CCN(c4ccc5c(c4)CN(C4CCC(=O)NC4=O)C5=O)CC3)CC2)CC1 (stereo not drawn)")
"> 50 nM"
>>> meas_value("Nc1ncnc2c1c(-c1ccc(Oc3ccccc3)cc1)nn2C1CCN(C(=O)N2CCN(c3ccc4c(c3)C(=O)N(C3CCC(=O)NC3=O)C4=O)CC2)CC1 (stereo not drawn)")
"> 50 nM"

* * *

target: BTK (Homo sapiens, UniProt Q06187); assay: Degradation of BTK protein in Namalwa cells (Western blot; DC50, Dmax); conditions: BTK degradation; cell line not given
Readout Label: DC50

>>> meas_value("NC(=O)c1c(-c2ccc(Oc3ccccc3)cc2)nn2c1NCCC2C1CCN(CC2CCN(C(=O)N3CCC(CN4CCC(c5ccc6c(c5)C(=O)N(C5CCC(=O)NC5=O)C6=O)CC4)CC3)CC2)CC1 (centres unmarked)")
"10 to 50 nM"
>>> meas_value("NC(=O)c1c(-c2ccc(Oc3ccccc3)cc2)nn2c1NCCC2C1CCN(C(=O)N2CCC(CN3CCC(c4ccc5c(c4)C(=O)N(C4CCC(=O)NC4=O)C5=O)CC3)CC2)CC1 (centres unmarked)")
"10 to 50 nM"
>>> meas_value("NC(=O)c1c(-c2ccc(Oc3ccccc3)cc2)nn2c1NCCC2C1CCN(C(=O)N2CCN(CC3CCN(c4ccc5c(c4)CN(C4CCC(=O)NC4=O)C5=O)CC3)CC2)CC1 (centres unmarked)")
"< 10 nM"
>>> meas_value("Nc1ncnc2c1c(-c1ccc(Oc3ccccc3)cc1)nn2C1CCN(C2CCN(CCCN3CCC(c4ccc5c(c4)C(=O)N(C4CCC(=O)NC4=O)C5=O)CC3)CC2)CC1 (centres unmarked)")
"10 to 50 nM"
>>> meas_value("NC(=O)c1c(-c2ccc(Oc3ccccc3)cc2)nn2c1NCC[C@H]2C1CCN(C(=O)N2CCN(CCN3CCN(c4ccc5c(c4)C(=O)N(C4CCC(=O)NC4=O)C5=O)CC3)CC2)CC1 (some centres unmarked)")
"10 to 50 nM"

* * *

Reported Dmax values for a set of compounds
molecular target: UniProtKB Q06187; assay: BTK degradation, DC50 and Dmax of Table 1 (cell line not given); type: cell-based; parameters: endogenous in cells
Readout Label: Dmax

>>> meas_value("Nc1ncnc2c1c(-c1ccc(Oc3ccccc3)cc1)nn2[C@@H]1CCCN(C(=O)N2CCC(C3CCN(c4ccc5c(c4)C(=O)N(C4CCC(=O)NC4=O)C5=O)CC3)CC2)C1 (some centres unmarked) [Compound 49]")
"> 90%"
>>> meas_value("Nc1ncnc2c1c(-c1ccc(Oc3ccccc3)cc1)nn2[C@@H]1CCCN(C(=O)N2CCC(CN3CCN(c4ccc5c(c4)C(=O)N(C4CCC(=O)NC4=O)C5=O)CC3)CC2)C1 (some centres unmarked) [Compound 55]")
"> 90%"
>>> meas_value("Nc1ncnc2c1c(-c1ccc(Oc3ccccc3)cc1)nn2[C@@H]1CCCN(C2CCN(C(=O)N3CCN(CCCN4CCN(c5ccc6c(c5)CN(C5CCC(=O)NC5=O)C6=O)CC4)CC3)CC2)C1 (some centres unmarked) [Compound 188]")
"> 75%"
>>> meas_value("Nc1ncnc2c1c(-c1ccc(Oc3ccccc3)cc1)nn2[C@@H]1CCCN(C(=O)N2CCC(N3CCN(c4ccc5c(c4)CN(C4CCC(=O)NC4=O)C5=O)CC3)CC2)C1 (some centres unmarked) [Compound 52]")
"> 90%"
>>> meas_value("Nc1ncnc2c1c(-c1ccc(Oc3ccccc3)cc1)nn2C1CCN(CCOCCN2CCN(c3ccc4c(c3)CN(C3CCC(=O)NC3=O)C4=O)CC2)CC1 (centres unmarked) [Compound 6]")
"> 90%"
